Entries and their melting point

Record summary for COc1ncccc1Nc1ncc(F)c(-c2cc(C#N)c3c(c2)[C@@](C)(CO)CN3)n1 : reported melting point = > 250 °C

Record summary for CC1(C)CNc2c(C#N)cc(-c3ccnc(Nc4cc(Cl)cnc4C(=O)N4CCC(O)C4)n3)cc21 (stereo not drawn) : reported melting point = 143 to 145 °C

Record summary for COc1ncc(F)cc1Nc1nccc(-c2cc(C#N)c3c(c2)[C@@](C)(CO)CN3)n1 : reported melting point = > 250 °C

Record summary for C[C@]1(CO)CNc2c(C#N)cc(-c3ccnc(Nc4cccn(CC(O)CO)c4=O)n3)cc21 (stereo partly drawn) [Compound 31i] : reported melting point = > 250 °C

Next:
Record summary for COc1cnc(C)cc1Nc1nccc(-c2cc(C#N)c3c(c2)[C@@](C)(CO)CN3)n1 : reported melting point = > 260 °C

Record summary for C[C@]1(CO)CNc2c(C#N)cc(-c3ccnc(Nc4ccc[nH]c4=O)n3)cc21 : reported melting point = > 250 °C
